Test: Plasma pharmacokinetics of pamiparib, single dose and steady state, non-compartmental
Assay type: in vivo, human
Details: human, plasma, oral, 60 mg, Single dose, 60 mg BID cohort, N 7, plasma; geometric mean (geometric CV%)
Measured Endpoint: Cmax (ng/mL)
// return numeric value only (unit: ng/mL, not printed)

State the recorded Cmax for this entry: C[C@]12CCCN1CC1=NNC(=O)c3cc(F)cc4[nH]c2c1c34 2300

----------
Assay: Plasma pharmacokinetics of pamiparib, single dose and steady state, non-compartmental
Type: in vivo, human
Conditions: human, plasma, oral, 60 mg, Steady state (Cycle 1 Day 10), 60 mg BID, N 5; median (range); read-out: Tmax
Measured Endpoint: Tmax (h)
// return numeric value only (unit: h, not printed)

State the recorded Tmax for this entry: C[C@]12CCCN1CC1=NNC(=O)c3cc(F)cc4[nH]c2c1c34 1.13
